Data origin, for the record: patent US20110230471A1

# Measured Target: recombinant autotaxin (Homo sapiens, UniProt Q13822)
# Construct: made in house; host or cells: Hi5 insect cells (baculovirus)
# Assay Notes: Autotaxin test (enzyme test), Amplex Red
# Type: biochemical
# Condition: Autotaxin inhibition (enzyme test), TABLE 1 (A compounds); substrate LPC 75 μM
Here the recorded IC50 is given for each entry.

>  <Chemical Smiles>
COc1ccc(Cl)cc1NC(=O)CN1CCc2nc3ccccc3c(C(=O)N3CCN(Cc4ccccc4)CC3)c2C1

>  <IC50>
100 to 1000 nM

$$$$
>  <Chemical Smiles>
COc1ccc(Cl)cc1NC(=O)CN1CCc2nc3ccccc3c(C(=O)N3CCN(CCN4CCOCC4)CC3)c2C1

>  <IC50>
< 100 nM

$$$$
>  <Chemical Smiles>
O=C(CN1CCc2nc3ccccc3c(C(=O)N3CCOCC3)c2C1)Nc1cccc(Cl)c1

>  <IC50>
> 1000 nM

$$$$

# IC50 of Cc1ccc(NC(=O)CN2CCc3nc4ccccc4c(C(=O)N4CCN(CCO)CC4)c3C2)cc1Cl = > 1000 nM
